- procedure_text: recombinant UMI read abundance after kanamycin selection (control-corrected) (log10(CPM+1)); higher = more efficient recombination; extreme values may be limits of the assay; sequences stand for … in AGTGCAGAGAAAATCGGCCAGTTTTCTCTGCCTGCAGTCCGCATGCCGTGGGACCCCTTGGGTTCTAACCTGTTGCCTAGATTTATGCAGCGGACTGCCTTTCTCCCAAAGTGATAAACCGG…AGGTTGGTTTCACT; site = the 11-nt donor;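 further: IS621 bridge recombinase in Escherichia coli cells against a fixed T5 target plasmid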
quantity_name: recombinant UMI read abundance (log10)
Numbers only.

INSERT INTO assay_data (input_sequence, measurement) VALUES
  ('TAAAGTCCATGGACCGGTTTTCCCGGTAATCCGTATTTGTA (site TAAAGTCCTTG)', 0.00546),
  ('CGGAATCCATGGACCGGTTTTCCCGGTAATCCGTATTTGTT (site CGAATTCCTAA)', 0),
  ('GAATGACCATGGACCGGTTTTCCCGGTAATCCGTATTTGCA (site GAATGGCCTTG)', 1.02);

Batch request: recombinant UMI read abundance (log10) per item, same order as input.
1. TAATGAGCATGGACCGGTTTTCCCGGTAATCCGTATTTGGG (site TAATGAGCTTC)
2. ATGTGGGCATGGACCGGTTTTCCCGGTAATCCGTATTTGTA (site ATGTGGGCTTA)
3. CCGATAGCATGGACCGGTTTTCCCGGTAATCCGTATTTGTG (site CCGCTAGCTCA)
4. CAAGTCACATGGACCGGTTTTCCCGGTAATCCGTATTTGTG (site CAAGTCACTCC)
5. GGTCCAACATGGACCGGTTTTCCCGGTAATCCGTATTTGCA (site GGTCCAACTTC)
6. ACTAACCCATGGACCGGTTTTCCCGGTAATCCGTATTTGGC (site ACTAACCCTGC)
7. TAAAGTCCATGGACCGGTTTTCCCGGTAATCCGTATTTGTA (site TAAAATCCTTA)

1: 0.0139; 2: 2.32; 3: 0.0063; 4: 0.0385; 5: 0.107; 6: 0; 7: 0
